The entries below come with measured T/C values attached.
# Test system: L1210 leukemia ip in BDF1 mice, survival T/C
# protocol: NCI In Vivo Anticancer Drug Screen. Data for tumor model L1210 Leukemia (intraperitoneal) in B6D2F1 (BDF1) mice
# condition.summary: endpoint: mean survival time; dose: 400.0 mg/kg/injection; schedule: Q04DX003 (ip); vehicle: saline with Tween-80; higher = longer survival
Inconclusive results and toxic doses are left out.

| compound | T/C |
| --- | --- |
| COc1ccc(OC(=O)CCCl)cc1 | 104 % of control |
| COC(=O)C(Br)CCBr (stereo not drawn) | 105 % of control |
| O=C1C=CC(=O)N1c1nccs1 | 95 % of control |
| C1CCCC2(CCC1)OCCO2 | 94 % of control |
| O=C(Nc1cccc2ccccc12)C(F)(F)F | 93 % of control |
| C/C(=C1/c2ccccc2-c2n[nH]c(C)c21)S(=O)(=O)O | 91 % of control |
| CNC(=O)Oc1cccc(NC(=O)OC(C)(C)C)c1 | 95 % of control |
| CSc1nnc(SC)s1 | 93 % of control |

###

# System: L1210 leukemia ip in BDF1 mice, survival T/C
# protocol: NCI In Vivo Anticancer Drug Screen. Data for tumor model L1210 Leukemia (intraperitoneal) in B6D2F1 (BDF1) mice
# condition.summary: endpoint: mean survival time; dose: 200.0 mg/kg/injection; schedule: Q01DX009 (ip); vehicle: Klucel (hydroxypropylcellulose) (HPC); higher = longer survival
Toxic doses and inconclusive results are not listed.

| molecule | T/C |
| --- | --- |
| O=C(/C=C\c1ccc2c(c1)OCO2)/C=C/c1ccc2c(c1)OCO2 | 88 % of control |
| O=C(O)c1ccccc1C(=O)Nc1cccc(C(F)(F)F)c1 | 99 % of control |
| CCCCN(Cc1ccccc1)C(=O)Nc1ccccc1 | 111 % of control |
| Cc1c(Cl)cccc1N=Cc1ccccc1O | 110 % of control |
| O=C(Nc1ccc(Br)cc1)Oc1ccccc1C(=O)Nc1ccccc1 | 98 % of control |
| CC(=O)Nc1ccc(/C(C#N)=C/c2ccc(N(C)CCC#N)cc2)cc1 | 100 % of control |
| OCCNC1c2ccccc2-c2ccccc21 | 99 % of control |
| O=C(c1ccccc1)C1C(c2ccccc2)N1CCl (centres undefined) | 94 % of control |
| CCOC(=O)C(CCN(C)Cc1ccccc1)C(=O)OCC | 100 % of control |
| CC(C)Cc1ccc(C(=O)O)cc1 | 94 % of control |
| O=[N+]([O-])c1cccnc1Cl | 95 % of control |
| NCC(=O)NC1(C(=O)O)C2CC3CC(C2)CC1C3 (centres undefined) | 103 % of control |
| Nc1ccccc1C(=O)N/N=C/c1ccccc1Cl | 97 % of control |
| Cc1ccc2[nH]c(=S)n(-c3cccc(C(F)(F)F)c3)c(=O)c2c1 | 104 % of control |
| CNC(Cc1ccccc1)c1ccc(OC)cc1 (centres undefined) | 98 % of control |
| CCCCCCCCC(C)c1ccccc1O (centres undefined) | 101 % of control |
| COC(=O)Nc1ccc(N)c(NC(=O)OC)n1 | 89 % of control |
| CC(C)CCCCCOC(N)=O | 103 % of control |
| N#CC(c1ccccc1)c1ccc(F)cc1 (centres undefined) | 97 % of control |
